assayed.system: Retinoic acid receptor alpha (Homo sapiens)
run.description: Agonist activity at human RARalpha expressed in HEK293 cells assessed as transcriptional activation at 0.1 to 50 uM after 40 hrs by luciferase reporter gene assay
Type: cell-based
Calls of active or inactive are those of the source. The rule behind the calls is not given here.
One label from this list, please: active, inactive

Just curious, what result did `CC(C)C1=CC2=CC[C@@H]3[C@](C)(CCC[C@@]3(C)C(=O)O)[C@H]2CC1` get here? active

Try `COC(=O)[C@H](C)NC(=O)[C@]1(C)CCC[C@]2(C)c3ccc(C(C)C)cc3CC[C@@H]12` next. inactive

Same thing, different compound: `C=C[C@]1(C)C=C2CC[C@H]3[C@@](C)(CCC[C@@]3(C)C(=O)O)[C@@H]2CC1` active

One more compound: `C=C1C[C@@]23CC[C@H]4[C@@](C)(CCC[C@@]4(C)C(=O)O)[C@@H]2CC[C@]1(O)C3` inactive

What do you have for `C=C[C@@]1(C)C=C2CC[C@@H]3[C@](C)(CCC[C@@]3(C)C(=O)O)[C@H]2CC1` ? active
